This collection of values is drawn from patent US6603014B1.

Test: UV absorption properties (λmax and specific absorbance E 1/1) of the light protection agents
Assay type: physicochemical
Parameters: unit not given here
Settings: Table 3, UV absorption maximum
Attribute Measured: λmax

1) COC(=O)C(C#N)=c1[nH]c2cccc3cccc([nH]1)c32; 296
2) COC(=O)/C(C#N)=C1\Sc2ccccc2N1CCCS(=O)(=O)O; 340
3) COC(=O)/C(C#N)=C1\Nc2ccc(C(=O)c3ccccc3)cc2N1; 348
4) CN1/C(=C(\C#N)C(=O)OCCS(=O)(=O)O)Sc2ccccc21; 340
5) CCCCCCN1C(=C(C#N)C(=O)OC)N(CCCCCC)c2ccccc21; 325

###

Experiment: UV absorption properties (λmax and specific absorbance E 1/1) of the light protection agents
Type: physicochemical
Parameters: unit not given here
Settings: Table 2, specific absorbance at λmax
Attribute Measured: E^11

1) CCCCCCN1C(=C(C#N)C(=O)OC2CC(C)CC(C)(C)C2)Sc2ccccc21 (stereo not drawn); 790
2) CCCCCCN1C(=C(C#N)C(=O)OC)Sc2ccccc21; 1200
3) CC1CC(OC(=O)C(C#N)=C2Sc3ccccc3N2C)CC(C)(C)C1 (stereo not drawn); 1090
4) CCCCOC(=O)C(C#N)=C1Sc2ccccc2N1CCCC; 1250
5) CCCCC(CC)COC(=O)/C(C#N)=C1\Sc2ccccc2N1C (stereo not drawn); 1150
6) CCCCCCN1C(=C(C#N)C(=O)OCC(CC)CCCC)Sc2ccccc21 (stereo not drawn); 830

###

Test: UV absorption properties (λmax and specific absorbance E 1/1) of the light protection agents
Assay type: physicochemical
Set-up: unit not given here
Conditions: Table 1, specific absorbance at λmax
Attribute Measured: E^11

Below: 2 molecules and their reported E^11.
1. COC(=O)C(C#N)=C1Nc2ccc(OC)cc2N1; 1601
2. N#CC(C#N)=C1Nc2ccccc2O1; 1844

P. N#CC(C#N)=C1Nc2ccccc2S1
Q. CCOC(=O)c1ccc2c(c1)NC(=C(C#N)C#N)N2
(Q) Smaller E^11 value? Options are P and Q Indicate which entry you chose by stating its label.
(A) Q
(Q: 821, P: 1776)

A. COC(=O)C(C#N)=C1Nc2ccccc2N1
B. CCOC(=O)c1ccc2c(c1)NC(=C(C#N)C(=O)OC)N2
(Q) Please tell me which of the two, A or B , has the higher reported E^11 value. Provide the label of your selected option as the answer.
(A) A
(A: 1986, B: 952)

###

Experiment: UV absorption properties (λmax and specific absorbance E 1/1) of the light protection agents
Assay type: physicochemical
Design: unit not given here
Conditions: Table 1, UV absorption maximum
Attribute Measured: λmax

1. Cc1ccc2c(c1)NC(=C(C#N)C#N)N2; 318
2. COc1ccc2c(c1)NC(=C(C#N)C#N)N2; 326
3. COC(=O)C(C#N)=C1Nc2ccc(C)cc2N1; 320
4. N#CC(C#N)=C1Nc2ccccc2O1; 308
5. CCOC(=O)c1ccc2c(c1)NC(=C(C#N)C(=O)OC)N2; 332
6. N#CC(C#N)=C1Nc2ccccc2S1; 334
7. COC(=O)C(C#N)=C1Nc2ccccc2O1; 310
8. COC(=O)C(C#N)=C1Nc2ccc(OC)cc2N1; 328
9. CCOC(=O)c1ccc2c(c1)NC(=C(C#N)C#N)N2; 334
10. COC(=O)C(C#N)=C1Nc2ccccc2N1; 316
11. N#CC(C#N)=C1Nc2ccccc2N1; 314
12. COC(=O)C(C#N)=C1Nc2ccccc2S1; 336
